Measured target: Msn1 (UniProt P22148)
Sequence: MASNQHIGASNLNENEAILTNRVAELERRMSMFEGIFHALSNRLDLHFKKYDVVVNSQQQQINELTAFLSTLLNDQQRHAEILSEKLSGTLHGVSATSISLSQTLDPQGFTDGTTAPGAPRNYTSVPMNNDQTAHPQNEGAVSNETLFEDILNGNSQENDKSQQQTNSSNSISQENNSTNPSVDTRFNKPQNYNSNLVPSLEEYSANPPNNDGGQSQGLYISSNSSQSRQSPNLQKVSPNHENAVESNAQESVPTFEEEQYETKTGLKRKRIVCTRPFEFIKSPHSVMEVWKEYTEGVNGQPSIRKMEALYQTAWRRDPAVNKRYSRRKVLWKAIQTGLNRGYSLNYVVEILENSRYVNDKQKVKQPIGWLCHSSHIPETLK
Protocol summary: PBM E-score (8-mer binding enrichment) (E-score (-0.5 to 0.5)); higher = stronger / more preferred TF binding
Assay conditions: protein concentration: 200 nM; construct: GST-full length
The full ranking holds about 33,000 sequences; the median of “E-score (-0.5 to 0.5)” is about -0.013, and the highest 2% start at about 0.3. This excerpt belongs to a sample that is enriched for the highest values.
Recorded metric: PBM E-score
Numbers only.

For the sequence ACACAAAC , give its measured PBM E-score value.
0.0132

For the sequence ATATTCCA , give its measured PBM E-score value.
0.212

For the sequence GACTCCCC , give its measured PBM E-score value.
-0.207

For the sequence AGACAAAC , give its measured PBM E-score value.
0.446

Please examine the following record next.
For the sequence GCCGACGC , give its measured PBM E-score value.
0.0201

* * *

Measured target: Msn1 (UniProt P22148)
Sequence: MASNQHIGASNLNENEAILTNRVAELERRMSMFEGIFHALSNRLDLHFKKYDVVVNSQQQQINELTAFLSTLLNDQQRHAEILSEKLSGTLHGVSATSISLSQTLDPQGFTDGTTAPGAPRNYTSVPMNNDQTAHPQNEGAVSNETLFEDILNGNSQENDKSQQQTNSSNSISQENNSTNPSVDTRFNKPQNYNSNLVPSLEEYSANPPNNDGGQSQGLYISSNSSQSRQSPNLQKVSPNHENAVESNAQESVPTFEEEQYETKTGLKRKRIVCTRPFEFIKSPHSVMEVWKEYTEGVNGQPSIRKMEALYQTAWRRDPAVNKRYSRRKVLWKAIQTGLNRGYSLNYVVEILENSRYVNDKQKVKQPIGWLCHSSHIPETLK
Protocol summary: PBM E-score (8-mer binding enrichment) (E-score (-0.5 to 0.5)); higher = stronger / more preferred TF binding
Assay conditions: protein concentration: 200 nM; construct: GST-full length
Whole data set: some 33,000 sequences, median “E-score (-0.5 to 0.5)” near -0.013, cut for the highest 2% near 0.3. The sample holds the highest values, similar sequences and a random draw of the others, so the mix is not that of the screen.
Class field: derived from PBM E-score; ranges c1: < 0.01; c2: ≥ 0.01 and < 0.2; c3: ≥ 0.2

Form: Item = AAAAATTC ; Class = ?
c2

Form: Item = ACATGTAA ; Class = ?
c3

Form: Item = ATAGATCC ; Class = ?
c1

Form: Item = GCCTTTCA ; Class = ?
c1

Form: Item = GCGGACAC ; Class = ?
c2

Next:
Form: Item = GCTGGAAA ; Class = ?
c1

Form: Item = AAGACATC ; Class = ?
c3

Form: Item = ACCTAACG ; Class = ?
c1

Form: Item = CAGACATG ; Class = ?
c3

* * *

Provide the recorded PBM E-score for the entries that follow.
Measured target: Msn1 (UniProt P22148)
Sequence: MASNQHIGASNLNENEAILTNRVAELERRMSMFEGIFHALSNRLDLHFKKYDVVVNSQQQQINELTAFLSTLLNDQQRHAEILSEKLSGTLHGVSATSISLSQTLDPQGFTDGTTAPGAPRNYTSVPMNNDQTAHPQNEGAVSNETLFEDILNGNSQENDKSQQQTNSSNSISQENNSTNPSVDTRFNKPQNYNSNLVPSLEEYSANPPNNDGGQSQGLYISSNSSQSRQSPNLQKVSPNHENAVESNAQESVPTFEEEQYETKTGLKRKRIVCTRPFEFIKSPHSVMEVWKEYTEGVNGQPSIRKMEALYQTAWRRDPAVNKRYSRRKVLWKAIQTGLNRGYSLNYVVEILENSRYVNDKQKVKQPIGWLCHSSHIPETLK
Protocol summary: PBM E-score (8-mer binding enrichment) (E-score (-0.5 to 0.5)); higher = stronger / more preferred TF binding
Assay conditions: protein concentration: 200 nM; construct: GST-full length
In all, about 33,000 sequences were measured (“E-score (-0.5 to 0.5)”: median about -0.013, highest 2% from about 0.3 on). This excerpt belongs to a sample that is enriched for the highest values.

For the sequence AAATGGAA , give its measured PBM E-score value.
0.131

Would you mind giving PBM E-score for every sequence in the list below?
1. ACAGACAA
2. ACAGACAG
3. GATTGTGC

1: 0.44; 2: 0.222; 3: -0.0365

* * *

Measured target: Msn1 (UniProt P22148)
Sequence: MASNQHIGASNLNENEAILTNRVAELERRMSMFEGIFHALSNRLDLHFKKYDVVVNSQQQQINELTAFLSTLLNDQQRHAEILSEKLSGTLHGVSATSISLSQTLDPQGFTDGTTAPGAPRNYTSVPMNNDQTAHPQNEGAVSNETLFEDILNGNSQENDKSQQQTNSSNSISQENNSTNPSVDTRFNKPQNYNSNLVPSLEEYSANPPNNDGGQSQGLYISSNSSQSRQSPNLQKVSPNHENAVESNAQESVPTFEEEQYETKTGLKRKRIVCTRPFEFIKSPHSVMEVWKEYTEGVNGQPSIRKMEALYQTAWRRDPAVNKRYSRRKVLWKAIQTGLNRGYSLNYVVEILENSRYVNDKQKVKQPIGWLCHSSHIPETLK
Protocol summary: PBM E-score (8-mer binding enrichment) (E-score (-0.5 to 0.5)); higher = stronger / more preferred TF binding
Assay conditions: protein concentration: 200 nM; construct: GST-full length
Whole data set: some 33,000 sequences, median “E-score (-0.5 to 0.5)” near -0.013, cut for the highest 2% near 0.3. Only a selection was taken, and the highest values are over-represented in it overall.
Recorded metric: PBM E-score
Answers are plain numbers.

Would you mind giving PBM E-score for every sequence in the list below?
1. AATGTACA
2. CTACCTCC
3. CATTGTAC
4. AATTGTAC

0.294
-0.0369
0.0768
0.365

* * *

Measured target: Msn1 (UniProt P22148)
Sequence: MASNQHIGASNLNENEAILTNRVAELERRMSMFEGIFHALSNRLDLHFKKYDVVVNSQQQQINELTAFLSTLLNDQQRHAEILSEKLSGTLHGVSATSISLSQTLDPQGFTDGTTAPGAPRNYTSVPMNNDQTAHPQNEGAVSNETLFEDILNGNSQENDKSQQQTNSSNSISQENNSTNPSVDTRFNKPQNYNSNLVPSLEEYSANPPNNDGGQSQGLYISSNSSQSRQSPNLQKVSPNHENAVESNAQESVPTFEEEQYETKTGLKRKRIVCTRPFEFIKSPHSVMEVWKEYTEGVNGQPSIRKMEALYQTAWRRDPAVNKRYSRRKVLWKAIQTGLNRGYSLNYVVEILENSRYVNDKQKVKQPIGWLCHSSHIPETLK
Protocol summary: PBM E-score (8-mer binding enrichment) (E-score (-0.5 to 0.5)); higher = stronger / more preferred TF binding
Assay conditions: protein concentration: 200 nM; construct: GST-full length
In all, about 33,000 sequences were measured (“E-score (-0.5 to 0.5)”: median about -0.013, highest 2% from about 0.3 on). The entries come from a sample that favours the highest values as a whole.
Provide the recorded PBM E-score for the entries that follow.

For the sequence GGCCGAAC , give its measured PBM E-score value.
-0.239

Would you mind giving PBM E-score for every sequence in the list below?
1. CTTTGTAA
2. GTCCTTAA

0.168
0.433

Would you mind giving PBM E-score for every sequence in the list below?
1. ATTTGTAC
2. GCATCCAA
3. AGGTCCCC
4. AGGTTAAC
5. CGCTCTGC
6. ATTTGTAG

1: 0.46; 2: -0.225; 3: -0.299; 4: -0.0876; 5: -0.112; 6: 0.162

Would you mind giving PBM E-score for every sequence in the list below?
1. CGAATAAC
2. ATCTTTGG
3. CTGTGAGA

0.0021
-0.0763
0.00231

* * *

Measured target: Msn1 (UniProt P22148)
Sequence: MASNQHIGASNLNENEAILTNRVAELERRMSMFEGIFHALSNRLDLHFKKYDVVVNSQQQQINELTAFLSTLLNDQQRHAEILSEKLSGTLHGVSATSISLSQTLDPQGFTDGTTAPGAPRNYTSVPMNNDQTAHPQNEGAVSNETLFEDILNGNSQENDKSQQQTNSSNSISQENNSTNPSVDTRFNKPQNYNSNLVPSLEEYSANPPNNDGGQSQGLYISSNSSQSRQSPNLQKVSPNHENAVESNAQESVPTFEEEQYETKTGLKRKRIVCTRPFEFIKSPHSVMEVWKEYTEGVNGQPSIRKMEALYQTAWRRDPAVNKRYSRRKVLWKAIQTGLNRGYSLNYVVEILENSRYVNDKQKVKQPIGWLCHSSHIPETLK
Protocol summary: PBM E-score (8-mer binding enrichment) (E-score (-0.5 to 0.5)); higher = stronger / more preferred TF binding
Assay conditions: protein concentration: 200 nM; construct: GST-full length
The full ranking holds about 33,000 sequences; the median of “E-score (-0.5 to 0.5)” is about -0.013, and the highest 2% start at about 0.3. Many of the other results were omitted from the sample, so the highest values are more common in it than they were.
Recorded metric: PBM E-score

Some sequences with recorded PBM E-score:
Provide the reported PBM E-score (system: Msn1 (UniProt P22148)) for GTGACAGA
0.161

Provide the reported PBM E-score (system: Msn1 (UniProt P22148)) for CAATGTAG
-0.109

Provide the reported PBM E-score (system: Msn1 (UniProt P22148)) for ATTTCCAC
0.106

Provide the reported PBM E-score (system: Msn1 (UniProt P22148)) for ACTGGCAA
0.0309

Provide the reported PBM E-score (system: Msn1 (UniProt P22148)) for CAATGTGC
-0.121

Provide the reported PBM E-score (system: Msn1 (UniProt P22148)) for AACAAAAG
0.101

Provide the reported PBM E-score (system: Msn1 (UniProt P22148)) for CATTTAAC
0.188

Provide the reported PBM E-score (system: Msn1 (UniProt P22148)) for ACTAGCGA
0.0418

Would you mind giving PBM E-score for every sequence in the list below?
1. ACAAAAGC
2. ATGACACC
3. CAATGTGG

0.364
0.0663
0.111

Would you mind giving PBM E-score for every sequence in the list below?
1. CAATGTCA
2. ACAAAAAC

0.262
0.319

Would you mind giving PBM E-score for every sequence in the list below?
1. CGTGCTGC
2. ATTGGTAA
3. CCAAAAGC

1. -0.144
2. 0.00511
3. 0.0259

Would you mind giving PBM E-score for every sequence in the list below?
1. CTACAATC
2. ATGACATA
3. ACCCGTTA
4. AGGGTTTG
5. ACAAAACC
6. GTTGTTAA

[0.0383, 0.417, 0.00896, -0.0242, 0.239, 0.334]

Would you mind giving PBM E-score for every sequence in the list below?
1. ACGGCCGT
2. ATGACATG
3. ACCGCCAG
4. CTTGTTAA

-0.204
0.361
-0.04
-0.0116

Would you mind giving PBM E-score for every sequence in the list below?
1. AGCGTAGG
2. GGATTTCA
3. AAATGTGG

-0.267
0.0863
0.147
